# Measurement Description: Selectivity index, ratio of IC50 for rat L6 cells to IC50 for Plasmodium falciparum K1 by [3H] hypoxanthine uptake inhibition assay
# Assay type: toxicity, cell-based
# Conditions: rat L6 cells versus Plasmodium falciparum K1, read-out: Ratio IC50
Measured Quantity: selectivity ratio

Molecule: CC(C)(C)n1nnnc1C(NCCCCNc1ccnc2cc(Cl)ccc12)c1ccc(CO[C@@H]2COc3nc([N+](=O)[O-])cn3C2)cc1 (some centres undefined)
Value Measured: 175
//
Molecule: O=[N+]([O-])c1cn2c(n1)OC[C@@H](OCCCNc1ccnc3cc(Cl)ccc13)C2
Value Measured: 12.8
//
Molecule: CC(C)(C)n1nnnc1C(NCCCNc1ccnc2cc(Cl)ccc12)c1ccc(CO[C@@H]2COc3nc([N+](=O)[O-])cn3C2)cc1 (some centres undefined)
Value Measured: 85
//
Molecule: COc1cc(NC(C)CCCNC(c2ccc(CO[C@@H]3COc4nc([N+](=O)[O-])cn4C3)cc2)c2nnnn2C(C)(C)C)c2ncccc2c1 (some centres undefined)
Value Measured: 37
//
Molecule: NCCNc1ccnc2cc(Cl)ccc12
Value Measured: 71.2
//
Molecule: OCCNc1ccnc2cc(Cl)ccc12
Value Measured: 159
//
Molecule: CN(CCO)CCNc1ccnc2cc(Cl)ccc12
Value Measured: 995
//
Molecule: CC(C)(C)n1nnnc1C(c1ccc(CO[C@@H]2COc3nc([N+](=O)[O-])cn3C2)cc1)N1CCCC1 (some centres undefined)
Value Measured: 8.65
//
Molecule: O=Cc1cccc(CO[C@@H]2COc3nc([N+](=O)[O-])cn3C2)c1
Value Measured: 0.54
